Reference for the values: patent EP2650284A1

Target: human metabotropic glutamate receptor mGluR5 (Homo sapiens)
Sequence (P41594 21-1212): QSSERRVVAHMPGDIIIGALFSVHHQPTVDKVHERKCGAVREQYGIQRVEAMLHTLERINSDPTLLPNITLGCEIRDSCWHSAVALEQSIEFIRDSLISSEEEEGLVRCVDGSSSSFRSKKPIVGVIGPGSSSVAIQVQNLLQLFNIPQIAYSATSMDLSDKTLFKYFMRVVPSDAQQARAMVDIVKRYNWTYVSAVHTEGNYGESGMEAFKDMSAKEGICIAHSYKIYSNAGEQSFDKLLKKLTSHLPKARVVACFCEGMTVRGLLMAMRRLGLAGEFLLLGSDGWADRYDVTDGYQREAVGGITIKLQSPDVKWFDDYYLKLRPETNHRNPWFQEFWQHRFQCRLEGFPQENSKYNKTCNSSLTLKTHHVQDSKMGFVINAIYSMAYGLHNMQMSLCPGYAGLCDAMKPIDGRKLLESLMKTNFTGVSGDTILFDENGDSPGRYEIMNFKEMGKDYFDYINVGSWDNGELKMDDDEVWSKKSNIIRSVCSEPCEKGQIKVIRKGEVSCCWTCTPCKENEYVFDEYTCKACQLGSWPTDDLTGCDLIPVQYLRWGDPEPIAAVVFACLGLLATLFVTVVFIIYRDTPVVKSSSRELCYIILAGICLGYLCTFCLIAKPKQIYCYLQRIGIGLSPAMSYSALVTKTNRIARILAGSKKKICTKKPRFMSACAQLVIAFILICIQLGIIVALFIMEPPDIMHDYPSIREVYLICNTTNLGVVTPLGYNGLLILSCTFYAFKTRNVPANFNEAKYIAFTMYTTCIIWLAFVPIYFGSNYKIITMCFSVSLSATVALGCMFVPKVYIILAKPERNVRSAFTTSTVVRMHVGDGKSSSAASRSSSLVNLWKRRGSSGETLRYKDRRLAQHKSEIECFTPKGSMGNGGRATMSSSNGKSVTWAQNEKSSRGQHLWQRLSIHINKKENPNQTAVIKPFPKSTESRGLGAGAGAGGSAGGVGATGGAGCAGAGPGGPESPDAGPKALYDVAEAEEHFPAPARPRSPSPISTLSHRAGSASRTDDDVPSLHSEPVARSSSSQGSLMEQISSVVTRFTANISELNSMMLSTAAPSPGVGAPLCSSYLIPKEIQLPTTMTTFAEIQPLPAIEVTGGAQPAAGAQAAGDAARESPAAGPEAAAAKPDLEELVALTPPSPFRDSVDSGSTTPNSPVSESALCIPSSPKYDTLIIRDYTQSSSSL
Experiment: Cytosolic calcium studies with stably transfected cells (h5CHO), functional assay of mGluR5 receptors
Details: Table A1; positive modulators; h5CHO cells preincubated with modulator, stimulated by an EC20 concentration of L-glutamate; read-out: hEC50
Experimental: Chinese hamster ovary cells (CHO-K1 cells), stably transfected for inducible expression of a human metabotropic glutamate receptor mGluR5 to form a cell line called h5CHO, are seeded into black clear bottom 96 well plates at a density of 35.000 cells per well. […] Agonistic compounds to the receptor elicit increases in cytosolic calcium which can be measured as increases in fluorescence signals by use of a fluorescence imaging plate reader (Molecular Devices). […]
readout name: EC50 (nM)
Answers are plain numbers, in nM.

For every item in the list below, what is its measured EC50?
1. CN1CCO[C@@H]2c3cc(C#Cc4ccccc4)cnc3CC[C@@H]21 (racemic) [Example 13]
2. CC(C)(C)OC(=O)N1CCc2ncc(C#Cc3ccccc3)cc2C1 [Example 42]
3. CCOC(=O)C(=O)N1CCc2ncc(C#Cc3ccccc3)cc2C1 [Example 77]
4. O=C1OC2(CCCc3ncc(C#Cc4cccc(F)c4)cc32)CN1c1ccccc1 (racemic) [Example 67]

-- reply
[425, 281, 25.4, 1310]

###

target: mGluR5 receptors (Rattus norvegicus); construct: Primary astrocyte cultures are prepared from cortices of newborn rats; endogenous in cells; host or cells: primary cortical astrocytes from Sprague-Dawley rat pups (2-4 d old); experiment: Cytosolic calcium studies with astrocytes (FLIPR), functional assay of mGluR5 receptors; format: cell-based; conditions: Table A1, left shift of quisqualate EC50 in the presence and absence of 10 µM modulator
Sequence (P31424 21-1203): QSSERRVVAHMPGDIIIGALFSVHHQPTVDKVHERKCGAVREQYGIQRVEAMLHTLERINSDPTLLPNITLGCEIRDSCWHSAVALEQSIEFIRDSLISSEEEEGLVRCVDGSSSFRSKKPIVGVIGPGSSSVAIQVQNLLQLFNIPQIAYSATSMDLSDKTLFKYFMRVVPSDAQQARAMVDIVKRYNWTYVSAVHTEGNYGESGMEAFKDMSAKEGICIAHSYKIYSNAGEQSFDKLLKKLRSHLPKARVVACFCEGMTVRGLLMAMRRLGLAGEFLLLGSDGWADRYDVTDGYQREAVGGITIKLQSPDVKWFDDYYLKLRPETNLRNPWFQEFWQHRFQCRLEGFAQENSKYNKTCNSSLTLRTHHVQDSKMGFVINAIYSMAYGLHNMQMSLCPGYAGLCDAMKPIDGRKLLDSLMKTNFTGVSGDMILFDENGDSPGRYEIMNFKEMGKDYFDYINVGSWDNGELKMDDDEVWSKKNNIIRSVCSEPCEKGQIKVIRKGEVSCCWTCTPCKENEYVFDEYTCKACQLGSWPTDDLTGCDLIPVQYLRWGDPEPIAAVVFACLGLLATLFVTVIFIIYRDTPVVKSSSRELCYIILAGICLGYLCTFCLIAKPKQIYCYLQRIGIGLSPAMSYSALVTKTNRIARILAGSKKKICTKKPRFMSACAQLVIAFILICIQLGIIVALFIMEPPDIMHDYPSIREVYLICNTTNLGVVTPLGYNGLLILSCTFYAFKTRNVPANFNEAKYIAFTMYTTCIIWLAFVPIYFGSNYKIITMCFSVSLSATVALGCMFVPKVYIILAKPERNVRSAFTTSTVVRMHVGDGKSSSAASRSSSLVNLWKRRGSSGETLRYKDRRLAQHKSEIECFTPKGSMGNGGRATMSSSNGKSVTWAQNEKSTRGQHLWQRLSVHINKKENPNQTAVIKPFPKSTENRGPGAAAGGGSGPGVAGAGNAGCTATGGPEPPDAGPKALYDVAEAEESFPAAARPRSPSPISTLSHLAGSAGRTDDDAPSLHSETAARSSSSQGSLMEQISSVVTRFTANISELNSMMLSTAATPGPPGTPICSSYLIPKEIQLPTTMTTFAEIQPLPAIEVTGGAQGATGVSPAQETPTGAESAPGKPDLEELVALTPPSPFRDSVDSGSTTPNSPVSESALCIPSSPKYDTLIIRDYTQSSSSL
Would you kindly list r left shift for each of these molecules?

>  <molecule>
COC(=O)N1C2CCC1c1cc(C#Cc3cccc(F)c3)cnc1C2 (racemic) [Example 59]

>  <system name>
mGluR5 receptors (Rattus norvegicus)

>  <r left shift>
3.3-fold

$$$$

Okay, here is my list. What is r left shift for each of these?
1. COC(=O)N1C2CCC1c1cc(C#Cc3ccccc3)cnc1C2 (racemic) [Example 58]
2. CCCN1CC2(CCCc3ncc(C#Cc4ccccc4)cc32)OC1=O (racemic) [Example 82]

-- reply
1. 3.9-fold
2. 1.6-fold

-- ask Give r left shift for CCCN1CCO[C@@H]2c3cc(C#Cc4cccc(F)c4)cnc3CC[C@@H]21 (racemic) [Example 19]
-- reply 2.6-fold

###

So I've got a bunch of compounds here, and I need their pKi values.
target: mGluR5 binding site (Rattus norvegicus, UniProt P31424); assay: [3H]-M-MPEP displacement studies on rat cortical membranes; details: Table A3, [3H]-M-MPEP 2 nM, 4°C for 1 h, median, read-out: Ki (MMPEP)
One number for each entry, as −log10 of the molar value.

Completed entries (count: 3):
>  <compound>
CCCN1CCO[C@@H]2c3cc(C#Cc4cccc(C)c4)cnc3CC[C@@H]21 (racemic) [Example 21]

>  <readout name>
pKi

>  <measured>
5.76

$$$$
>  <compound>
CCCN1CC2(CCCc3ncc(C#Cc4cccc(C)c4)cc32)OC1=O (racemic) [Example 64]

>  <readout name>
pKi

>  <measured>
6.40

$$$$
>  <compound>
COC1CCCc2ncc(C#Cc3ccccc3)cc21 (single isomer, unassigned) [Example 2]

>  <readout name>
pKi

>  <measured>
6.69

$$$$

We next turn to a different compound, shown below.
-- ask Report value: pKi, system: mGluR5 binding site (Rattus norvegicus, UniProt P31424), compound: CC(C)C(=O)N1CCc2ncc(C#Cc3ccccc3)cc2C1 [Example 33]
-- reply 6.40
